Tested on: T. brucei brucei (MiTat 1.2, strain 427, variant 221)
method_description: In vitro inhibition of blood stream form trypanosomes, acid phosphatase detection of survivors
Type: cell-based
setup_conditions: Trypanosoma brucei, 24 h, read-out: Trypanosome EC50
measured_property: EC50 (nM)

CCc1c2c(nc3cc4c(cc13)OCO4)-c1cc3c(c(=O)n1C2)COC(=O)[C@]3(O)CC [7-Ethyl-10,11-methylenedioxy-20(S)-CPT] | 60
CCc1c2c(nc3cc4c(c(N)c13)OCO4)-c1cc3c(c(=O)n1C2)COC(=O)[C@]3(O)CC | 60
CCc1c2c(nc3ccc([N+](=O)[O-])cc13)-c1cc3c(c(=O)n1C2)COC(=O)[C@]3(O)CC [7-Ethyl-10-nitro-20(S)-CPT, 7-ethyl-10-nitro-20(S)-camptothecin] | 600

###

Test system: T. brucei brucei (MiTat 1.2, strain 427, variant 221)
method_description: In vitro inhibition of blood stream form trypanosomes, acid phosphatase detection of survivors
Format: cell-based
setup_conditions: Trypanosoma brucei, 24 h, read-out: Trypanosome EC50
measured_property: log10 of EC50 (log10 of the value in nM)

CCc1c2c(nc3ccc(N)cc13)-c1cc3c(c(=O)n1C2)COC(=O)[C@]3(O)CC [7-Ethyl-10-amino-20(S)-CPT, 7-ethyl-10-amino-20(S)-camptothecin] | 2.79
CC[C@@]1(O)C(=O)OCc2c1cc1n(c2=O)Cc2cc3cc([N+](=O)[O-])ccc3nc2-1 [10-Nitro-20(S)-CPT] | 3.24
CC[C@@]1(O)C(=O)OCc2c1cc1n(c2=O)Cc2cc3cc(C)ccc3nc2-1 [10-Methyl-20(S)-CPT] | 3.50
CC[C@@]1(O)C(=O)OCc2c1cc1n(c2=O)Cc2c-1nc1cc3c(cc1c2C)OCO3 [7-Methyl-10,11-methylenedioxy-20(S)-CPT] | 1.60
CC[C@@]1(O)C(=O)OCc2c1cc1n(c2=O)Cc2cc3cccc(N)c3nc2-1 [12-Amino-20(S)-CPT] | 4.35
CC[C@@]1(O)C(=O)OCc2c1cc1n(c2=O)Cc2cc3ccccc3nc2-1 [20(S)-CPT, 20(S)-camptothecin] | 3.19

###

Test system: T. brucei brucei (MiTat 1.2, strain 427, variant 221)
method_description: In vitro inhibition of blood stream form trypanosomes, acid phosphatase detection of survivors
Format: cell-based
setup_conditions: Trypanosoma brucei, 24 h, read-out: Trypanosome EC50
Class field: derived from EC50; ranges lower bin (below 400 nM), middle bin (400 nM to below 1000 nM), upper bin (1000 nM or more)

CC[C@@]1(O)C(=O)OCc2c1cc1n(c2=O)Cc2cc3ccc(N)cc3nc2-1 [11-Amino-20(S)-CPT] | upper bin
CC[C@@]1(O)C(=O)OCc2c1cc1n(c2=O)Cc2cc3cc(N)ccc3nc2-1 [10-Amino-20(S)-CPT, 10-amino-20(S)-camptothecin] | upper bin
CC[C@@]1(O)C(=O)OCc2c1cc1n(c2=O)Cc2cc3cc(Cl)ccc3nc2-1 [10-Chloro-20(S)-CPT, 10-chloro-20(S)-camptothecin] | upper bin
CCCc1c2c(nc3ccccc13)-c1cc3c(c(=O)n1C2)COC(=O)[C@]3(O)CC [7-Propyl-20(S)-CPT, 7-propyl-20(S)-camptothecin] | middle bin
CCc1c2c(nc3cccc(N)c13)-c1cc3c(c(=O)n1C2)COC(=O)[C@]3(O)CC [7-Ethyl-9-amino-20(S)-CPT, 7-ethyl-9-amino-20(S)-camptothecin] | middle bin
CC[C@@]1(O)C(=O)OCc2c1cc1n(c2=O)Cc2cc3c(N)c4c(cc3nc2-1)OCO4 [9-Amino-10,11-MD-20(S)-CPT] | lower bin
CC[C@@]1(O)C(=O)OCc2c1cc1n(c2=O)Cc2cc3c(Cl)cccc3nc2-1 [9-Chloro-20(S)-CPT, 9-chloro-20(S)-camptothecin] | middle bin
CCc1c2c(nc3ccccc13)-c1cc3c(c(=O)n1C2)COC(=O)[C@]3(O)CC [7-Ethyl-20(S)-CPT, 7-ethyl-20(S)-camptothecin] | middle bin
CCc1c2c(nc3cc4c(c([N+](=O)[O-])c13)OCO4)-c1cc3c(c(=O)n1C2)COC(=O)[C@]3(O)CC | lower bin
CCc1c2c(nc3cccc([N+](=O)[O-])c13)-c1cc3c(c(=O)n1C2)COC(=O)[C@]3(O)CC [7-Ethyl-9-nitro-20(S)-CPT, 7-ethyl-9-nitro-20(S)-camptothecin] | upper bin
CC[C@@]1(O)C(=O)OCc2c1cc1n(c2=O)Cc2cc3cc4c(cc3nc2-1)OCO4 [10,11-MD-20(S)-CPT, 10,11-methylenedioxy-20(S)-camptothecin] | lower bin

###

# reported Relative Potency T-1 Inhibition; entries follow
target_system: topoisomerase I (Homo sapiens)
Sequence (P11387 whole entry): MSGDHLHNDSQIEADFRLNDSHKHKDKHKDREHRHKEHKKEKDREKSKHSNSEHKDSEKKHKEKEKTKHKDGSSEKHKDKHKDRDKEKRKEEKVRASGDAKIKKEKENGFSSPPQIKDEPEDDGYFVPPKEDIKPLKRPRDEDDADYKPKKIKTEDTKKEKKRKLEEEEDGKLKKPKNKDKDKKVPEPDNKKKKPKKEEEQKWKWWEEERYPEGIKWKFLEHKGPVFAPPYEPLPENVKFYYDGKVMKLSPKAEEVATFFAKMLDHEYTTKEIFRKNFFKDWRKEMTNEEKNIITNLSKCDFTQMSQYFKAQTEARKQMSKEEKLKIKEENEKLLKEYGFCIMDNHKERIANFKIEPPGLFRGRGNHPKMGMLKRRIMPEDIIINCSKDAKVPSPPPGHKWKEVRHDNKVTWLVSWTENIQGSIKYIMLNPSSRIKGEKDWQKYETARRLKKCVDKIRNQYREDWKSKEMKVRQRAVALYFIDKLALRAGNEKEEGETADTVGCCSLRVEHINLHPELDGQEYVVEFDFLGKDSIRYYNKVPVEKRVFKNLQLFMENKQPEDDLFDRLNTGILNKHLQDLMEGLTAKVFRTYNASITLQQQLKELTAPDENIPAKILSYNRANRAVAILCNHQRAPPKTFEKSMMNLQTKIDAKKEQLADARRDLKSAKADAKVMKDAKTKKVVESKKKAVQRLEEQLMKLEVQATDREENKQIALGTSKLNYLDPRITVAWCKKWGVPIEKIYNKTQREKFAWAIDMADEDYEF
method_description: Topoisomerase I inhibition relative to 20(S)-camptothecin (separate independent experiments)
Assay type: biochemical
setup_conditions: T1 relative to 20(S)CPT
measured_property: Relative Potency T-1 Inhibition

CCc1c2c(nc3cc4c(c(N)c13)OCO4)-c1cc3c(c(=O)n1C2)COC(=O)[C@]3(O)CC | 10
CC[C@@]1(O)C(=O)OCc2c1cc1n(c2=O)Cc2cc3c(N)cccc3nc2-1 [9-Amino-20(S)-CPT, 9-amino-20(S)-camptothecin] | 2
CC[C@@]1(O)C(=O)OCc2c1cc1n(c2=O)Cc2cc3ccccc3nc2-1 [20(S)-CPT, 20(S)-camptothecin] | 1
CC[C@@]1(O)C(=O)OCc2c1cc1n(c2=O)Cc2cc3c([N+](=O)[O-])c4c(cc3nc2-1)OCO4 [9-Nitro-10,11-methylenedioxy-20(S)-CPT] | 3
CCc1c2c(nc3cc4c(c([N+](=O)[O-])c13)OCO4)-c1cc3c(c(=O)n1C2)COC(=O)[C@]3(O)CC | 5
CC[C@@]1(O)C(=O)OCc2c1cc1n(c2=O)Cc2cc3cc4c(cc3nc2-1)OCO4 [10,11-MD-20(S)-CPT, 10,11-methylenedioxy-20(S)-camptothecin] | 10
CCc1c2c(nc3cc4c(cc13)OCO4)-c1cc3c(c(=O)n1C2)COC(=O)[C@]3(O)CC [7-Ethyl-10,11-methylenedioxy-20(S)-CPT] | 12
CC[C@@]1(O)C(=O)OCc2c1cc1n(c2=O)Cc2cc3cc(N)ccc3nc2-1 [10-Amino-20(S)-CPT, 10-amino-20(S)-camptothecin] | 2
CC[C@@]1(O)C(=O)OCc2c1cc1n(c2=O)Cc2c-1nc1cc3c(cc1c2C)OCO3 [7-Methyl-10,11-methylenedioxy-20(S)-CPT] | 5
CCc1c2c(nc3cccc([N+](=O)[O-])c13)-c1cc3c(c(=O)n1C2)COC(=O)[C@]3(O)CC [7-Ethyl-9-nitro-20(S)-CPT, 7-ethyl-9-nitro-20(S)-camptothecin] | 4
CCc1c2c(nc3ccc([N+](=O)[O-])cc13)-c1cc3c(c(=O)n1C2)COC(=O)[C@]3(O)CC [7-Ethyl-10-nitro-20(S)-CPT, 7-ethyl-10-nitro-20(S)-camptothecin] | 4
CCc1c2c(nc3cccc(N)c13)-c1cc3c(c(=O)n1C2)COC(=O)[C@]3(O)CC [7-Ethyl-9-amino-20(S)-CPT, 7-ethyl-9-amino-20(S)-camptothecin] | 5
CCCc1c2c(nc3ccccc13)-c1cc3c(c(=O)n1C2)COC(=O)[C@]3(O)CC [7-Propyl-20(S)-CPT, 7-propyl-20(S)-camptothecin] | 2
CCc1c2c(nc3ccccc13)-c1cc3c(c(=O)n1C2)COC(=O)[C@]3(O)CC [7-Ethyl-20(S)-CPT, 7-ethyl-20(S)-camptothecin] | 3
CCc1c2c(nc3ccc(N)cc13)-c1cc3c(c(=O)n1C2)COC(=O)[C@]3(O)CC [7-Ethyl-10-amino-20(S)-CPT, 7-ethyl-10-amino-20(S)-camptothecin] | 5

###

target_system: UniProt:F1MN93
Sequence (F1MN93 1-767): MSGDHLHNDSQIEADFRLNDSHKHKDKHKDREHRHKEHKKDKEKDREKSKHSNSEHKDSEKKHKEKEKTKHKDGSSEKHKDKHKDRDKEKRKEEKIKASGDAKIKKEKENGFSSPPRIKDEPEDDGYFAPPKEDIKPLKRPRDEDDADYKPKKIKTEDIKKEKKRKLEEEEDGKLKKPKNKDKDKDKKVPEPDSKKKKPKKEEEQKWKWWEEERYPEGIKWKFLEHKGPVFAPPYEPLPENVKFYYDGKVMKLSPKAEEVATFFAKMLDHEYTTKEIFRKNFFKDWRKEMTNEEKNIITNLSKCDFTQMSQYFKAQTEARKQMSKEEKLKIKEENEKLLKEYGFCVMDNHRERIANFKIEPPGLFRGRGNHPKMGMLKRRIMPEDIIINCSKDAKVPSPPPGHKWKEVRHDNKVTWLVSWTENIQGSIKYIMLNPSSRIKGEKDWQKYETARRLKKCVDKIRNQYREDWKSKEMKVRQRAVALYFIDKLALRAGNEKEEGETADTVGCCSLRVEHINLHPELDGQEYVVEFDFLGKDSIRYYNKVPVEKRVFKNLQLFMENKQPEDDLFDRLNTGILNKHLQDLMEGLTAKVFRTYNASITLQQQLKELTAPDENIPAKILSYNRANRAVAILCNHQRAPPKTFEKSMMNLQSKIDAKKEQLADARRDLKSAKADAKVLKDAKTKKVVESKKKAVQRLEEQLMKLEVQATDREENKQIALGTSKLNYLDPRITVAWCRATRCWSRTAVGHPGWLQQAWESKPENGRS
method_description: Topoisomerase I inhibition by the cleavable complex assay of Hsiang et al.
This listing pairs compounds with measured IC50.
measured_property: IC50 (nM)

CC[C@@]1(O)C(=O)OCc2c1cc1n(c2=O)Cc2cc3c(N)c4c(cc3nc2-1)OCO4 [9-Amino-10,11-MD-20(S)-CPT] | 50
CC[C@@]1(O)C(=O)OCc2c1cc1n(c2=O)Cc2cc3cc4c(cc3nc2-1)OCO4 [10,11-MD-20(S)-CPT, 10,11-methylenedioxy-20(S)-camptothecin] | 30
CC[C@@]1(O)C(=O)OCc2c1cc1n(c2=O)Cc2cc3c(Cl)cccc3nc2-1 [9-Chloro-20(S)-CPT, 9-chloro-20(S)-camptothecin] | 90
